System: α7 integrin (LacZ reporter in α7βgal+/− myoblasts)
protocol_summary: Myoblast α7+/LacZ integrin FDG assay (Burkin assay in myoblasts, 96-well)
Format: cell-based, mouse
experimental_setup: 20 uM; α7+/LacZ myoblasts, 96-well
Reported Burkin Assay in Myoblasts, value relative to DMSO values follow for various compounds
Please reply with the number alone, leaving off any unit.

CN(C)S(=O)(=O)c1cccc(C(=O)Nc2ccc3c(c2)CCC3)c1 | 0.8398
O=C(COc1cc2oc(=O)c3c(c2cc1Cl)CCCC3)NCC1CCC(C(=O)O)CC1 (stereo not shown) | 1.052
Cc1ccc(-c2nc(C)sc2CC(=O)OCC(=O)Nc2c(F)cccc2F)cc1 | 0.9101
COCc1c(C(=O)OCc2nc3ccsc3c(=O)[nH]2)oc2ccccc12 | 1.014
CNC(=S)N1CCC(NC(=O)C(Cc2ccc(F)cc2)NC(C)=O)CC1 (stereo not shown) | 0.8326

The recorded Burkin Assay in Myoblasts, value relative to DMSO with α7 integrin (LacZ reporter in α7βgal+/− myoblasts) for CCNC(=O)CSc1nc(-c2ccc(F)cc2)cs1 was 1.098

Here CCS(=O)(=O)N1CCCC(C(=O)c2ccc(OC)cc2C)C1 (stereo not shown) was tested on α7 integrin (LacZ reporter in α7βgal+/− myoblasts), and its Burkin Assay in Myoblasts, value relative to DMSO came to 0.8796

====

# CMV-LACZ in Myoblasts (β-galactosidase activity relative to DMSO) listing for each entry below
Tested on: β-galactosidase in CMV-LacZ C2C12 myoblasts
protocol_summary: CMV-LacZ secondary screen in C2C12 myoblasts (β-Gal stabilizing assay)
Type: cell-based, mouse
experimental_setup: 5 uM; CMV-LacZ C2C12 myoblasts

// known answers, use as guide
Cc1ccc2c(c1)/C(=C/c1ccco1)C(=O)N2 | 0.8717
CC(C)c1ccc(NC(=O)CN2C(=O)c3ccccc3S2(=O)=O)cc1 | 1.1078
CCOC(=O)C1(Cc2cccc(Cl)c2)CCCN(C(=O)CCSC)C1 (stereo not drawn) | 0.9901
N#Cc1nc(COc2ccccc2)oc1N1CCCC1 | 0.9702
C/C(=N\NC(=O)c1cc(C)oc1C)c1ccc2ccccc2c1 | 0.9071

Now examine the next entry.
The recorded CMV-LACZ in Myoblasts (β-galactosidase activity relative to DMSO) for entry COc1cc(/C=C/CN2CCN(Cc3ccc(C)o3)C(CCO)C2)ccc1O (stereo not drawn) equals 0.9522

====

Tested on: β-galactosidase in CMV-LacZ C2C12 myotubes
protocol_summary: CMV-LacZ secondary screen in C2C12 myotubes (β-Gal stabilizing assay)
Assay type: cell-based, mouse
experimental_setup: 0.5 uM; C2C12 CMV-LacZ myotubes; fold relative to DMSO
Each record is given class 1 if its reported CMV-LACZ in Myotubes, signal relative to DMSO is strictly below 1. Records at or above 1 are given class 0.

Consider the following illustrative entries.
O=C(NCc1ccccc1)c1csc(-c2cccnc2)n1 [MLS000860966-01] | class 1
Cn1cc(CN2CCC(C(=O)Nc3cccc(-c4cscn4)c3)CC2)cn1 [MLS001105912-01] | class 0
CC(=O)C1=C(C)Nc2ncnn2C1c1ccc(C)cc1 (stereo not shown) [MLS001197779-01] | class 0
CCOC(=O)c1cc(-c2cccs2)nc2c1c(C)nn2-c1ccccn1 [MLS001006516-01] | class 1
O=C(CCc1ccccc1)c1nnc(-c2ccccc2)o1 [MLS001004364-01] | class 1

A record lists CCn1c(=O)c2cc(C(=O)N(C)c3cc(C)ccc3OC)sc2c2ccccc21 [MLS000731285-01] . Is its CMV-LACZ in Myotubes, signal relative to DMSO below 1?
class 0

Is the reported CMV-LACZ in Myotubes, signal relative to DMSO for Fc1ccc(-c2ccnc3nc(N4CCN(c5ccccc5)CC4)nn23)cc1 [MLS000546316-01] strictly below 1?
class 0

I'd appreciate it if you could check whether COc1cc(C=O)ccc1OCC(=O)Nc1ccc2c(c1)OCO2 [MLS001123876-01] has CMV-LACZ in Myotubes, signal relative to DMSO smaller than 1.
class 1

Regarding CCOn1c(=O)c(-c2ccccc2)[n+]([O-])c2ccccc21 [MLS001197220-01] , kindly confirm whether its CMV-LACZ in Myotubes, signal relative to DMSO is beneath 1.
class 1

In plain terms, does O=C(O)CC1(c2ccccc2)C(=O)c2ccccc2C1=O [MLS000052969-01] come in under 1 for CMV-LACZ in Myotubes, signal relative to DMSO?
class 1

====

System: α7 integrin (LacZ reporter in α7+/LacZ myotubes)
protocol_summary: Myotube α7 integrin FDG assay (Burkin assay in myotubes, 96-well)
Format: cell-based, mouse
experimental_setup: myotubes, 20 uM
parameter: Burkin Assay in Myotubes, α7 integrin LacZ reporter signal relative to DMSO
# respond with the number and nothing more

Solved entries (count: 2):
O=c1[nH]c(CN2CCCCC2)nc2c1C1(CCCCC1)Cc1ccccc1-2 [MLS000028160-01] | 0.9049
O=C(NCCc1ccc(Cl)cc1)C1CCCO1 (centres unmarked) [MLS001198271-01] | 0.9056

response.value for CCC(CC)C(=O)Nc1c(C(=O)N2CCN(c3ccccc3)CC2)oc2ccccc12 [MLS001116079-01] (field: Burkin Assay in Myotubes, α7 integrin LacZ reporter signal relative to DMSO) = 0.9027

Burkin Assay in Myotubes, α7 integrin LacZ reporter signal relative to DMSO reported for this compound Nc1cccc(/C=C/C(=O)O)c1 [MLS000777780-01] : 0.8814

The compound identified as COc1ccc(Cl)cc1NC(=O)CC(=O)Nc1cc(Cl)ccc1OC [MLS001166704-01] registered its Burkin Assay in Myotubes, α7 integrin LacZ reporter signal relative to DMSO at 0.7918

Lab note: Nc1ncnc(NCc2ccccc2)c1[N+](=O)[O-] [MLS000698826-01] gave Burkin Assay in Myotubes, α7 integrin LacZ reporter signal relative to DMSO of 0.9575

// Burkin Assay in Myotubes, α7 integrin LacZ reporter signal relative to DMSO value for CC1(C)Cc2c(c(N3CCOCC3)nc3sc(C(=O)Nc4ccccc4)c(N)c23)CO1 [MLS001075922-01] : 1.067

Notebook: O=C(CSc1nnc2c(n1)[nH]c1ccccc12)NCc1ccccc1F [MLS001225512-01] , Burkin Assay in Myotubes, α7 integrin LacZ reporter signal relative to DMSO read as 0.8431

// field: Burkin Assay in Myotubes, α7 integrin LacZ reporter signal relative to DMSO; key: Cc1cc(C)cc(OCC(=O)N/N=C/c2ccccn2)c1 [MLS000710669-01] ; value = 0.9967

According to the records, this compound N#Cc1ccccc1S(=O)(=O)N1CCN(C(=O)C2CCCCC2)CC1 [MLS002251986-01] displays Burkin Assay in Myotubes, α7 integrin LacZ reporter signal relative to DMSO of 0.9882

// field: Burkin Assay in Myotubes, α7 integrin LacZ reporter signal relative to DMSO; key: Cn1cc(CN(CCO)Cc2cccs2)c(-c2ccccc2F)n1 [MLS000732652-01] ; value = 0.6797

====

Tested on: β-galactosidase in CMV-LacZ C2C12 myotubes
protocol_summary: CMV-LacZ secondary screen in C2C12 myotubes (β-Gal stabilizing assay)
Format: cell-based, mouse
experimental_setup: 20 uM; C2C12 CMV-LacZ myotubes; fold relative to DMSO
parameter: CMV-LACZ in Myotubes, signal relative to DMSO
Lab note: jot down the number only; don't add units.

COc1ccccc1-c1coc2c(CN3C(C)CCCC3C)c(O)ccc2c1=O (stereo not drawn) | 0.9159
c1ccc(-c2cc(-c3nc4ccccc4[nH]3)c3ccccc3n2)cc1 | 0.8760

Here is the next item to consider.
The compound listed as O=C(Nc1cc(-c2nc3ccccc3s2)ccc1Cl)c1ccc2c(c1)OCO2 has a reported CMV-LACZ in Myotubes, signal relative to DMSO of 1.0520

====

Tested on: β-galactosidase in CMV-LacZ C2C12 myotubes
protocol_summary: CMV-LacZ secondary screen in C2C12 myotubes (β-Gal stabilizing assay)
Format: cell-based, mouse
experimental_setup: 20 uM; C2C12 CMV-LacZ myotubes; fold relative to DMSO
parameter: CMV-LACZ in Myotubes, signal relative to DMSO
The answer should be a number; do not append a unit.

Cc1ccc(NS(=O)(=O)c2ccc(-c3ccc(=O)[nH]n3)o2)c(C)c1 | 0.9800
CCNC(=O)COC(=O)c1cc(-c2ccco2)nc2ccccc12 | 1.029

response.value for O=C1CCc2cc(S(=O)(=O)Nc3ccc(C(F)(F)F)cc3)cc3c2N1CC3 (field: CMV-LACZ in Myotubes, signal relative to DMSO) = 0.9895

Documented CMV-LACZ in Myotubes, signal relative to DMSO of OC(c1nc2ccc(F)cc2[nH]1)C(O)c1nc2ccc(F)cc2[nH]1 (centres unmarked) : 0.9953

Consider Cc1ccsc1-c1n[nH]c(=S)n1C1CCCCC1 . Its measured CMV-LACZ in Myotubes, signal relative to DMSO is 1.0011
